The reported measurements were obtained from ChEMBL document CHEMBL6109161.

- measurement_notes: Inhibition of recombinant human neutral sphingomyelinase 2 using […] as substrate in presence of alkaline phosphatase, choline oxidase and horseradish peroxidase by fluorescence-based coupled assay
assay_readout: pIC50
Numbers only, as −log10 of the molar value.

>  <compound>
CN(C)c1cnn2ccc(NCc3ccccc3)nc12

>  <assay_readout>
pIC50

>  <endpoint_result>
7.10

$$$$

Provide pIC50 values for the following items, in order.
1. COc1ccc(CNc2ccn3ncc(N(C)C)c3n2)cc1OC
2. CN(C)c1cnn2ccc(N3CCOCC3)nc12
3. CC1CCCN1c1ccn2ncc(N(C)C)c2n1 (stereo unspecified)
4. CN(C)c1cnn2ccc(NCc3ccc(C(F)(F)F)cc3)nc12
5. CN(C)c1ccc(CNc2ccn3ncc(N(C)C)c3n2)cc1

1: 7.52; 2: 7.22; 3: 7.15; 4: 7.40; 5: 7.00
